- Tested on: A549
- protocol_notes: NCI tumour cell line growth inhibition, 48 h
Active and inactive are the calls of the source. No stated cut-off is given here; in the data, active = GI50 up to about 1.1 µM and inactive = higher.
Reply using exactly one outcome from active, inactive

compound | label
CN(C)CCCCC1CCN(CC(=O)N2c3ccccc3NC(=O)c3ccccc32)CC1 | inactive
COC(=O)C(CC(C)C)NC(=O)C(NC(=O)c1ccc(-c2ccc(Cl)cc2Cl)o1)C(C)C (stereo not drawn) | inactive
Cc1ccc(S(=O)(=O)SC(C)(C)C)cc1 | inactive
CN(C)CCN1C(=O)N(CCN(C)C)c2c3cc(O)ccc3nc3c([N+](=O)[O-])ccc1c23 | inactive
CN1N=C(c2ccccc2)c2cc(Cl)ccc2N=C1N/N=C/c1ccc(N(C)C)cc1 | inactive

Just curious, what result did `CC(C)C/C(CC(=O)CCC(=O)Nc1ccccc1[N+](=O)[O-])=N\NC(=O)c1cc2ccccc2cc1O` get here?
inactive

Just curious, what result did `O=c1c2ccccc2nc(-c2ccccc2)n1NC(=S)Nc1ccc(Cl)cc1` get here?
inactive

Just curious, what result did COc1ccc(C2CC(c3cc(C)ccc3O)=NC(N)=N2)cc1 (stereo not drawn) get here?
inactive
